All values here come from PubChem BioAssay AID1159580.

# experimental.details: chemical genetic growth profiling, strain panel (AID 1159580);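 also: tested at 20 µM; growth read once vehicle control cultures reached saturation at 30 °C; 1 = growth at the plate median or of vehicle wells; lower values mean less growth of the strain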
# conditions.used: S. cerevisiae deletion strains, growth OD, locus YER167W, strain BCK2, active compounds read low
Out of some 5,500 compounds screened, about 2,000 (36%) were called active. Inconclusive results (about 18%) are left out. The list shows a part of the results.
observation.type: normalized growth
Answer with a bare number; do not write a unit.

- Oc1c(I)cc(I)c2cccnc12: 0.0711
- C=CC(C1=CC(=O)C(OC)=CC1=O)c1ccc(O)cc1 (configuration not stated): 0.973
- COC(=O)C[C@H]1C(C)(C)C(=O)[C@@H]2CC3=C4CC(=O)O[C@@H](c5ccoc5)[C@]4(C)CCC3[C@@]1(C)C2=O (some centres not stated): 1

Q: Give the reported value of normalized growth for this record: C=CC(C1=CC(=O)C=CC1=O)c1ccccc1 (configuration not stated)
Result: 0.947

Q: Give the reported value of normalized growth for this record: CC(=O)Oc1ccc(Cl)c2cccnc12
Result: 0.0497

Q: Give the reported value of normalized growth for this record: C=C[C@@H](C1=CC(=O)C(OC)=C(OC)C1=O)c1ccccc1
Result: 0.252

Q: Give the reported value of normalized growth for this record: C=CC(C1=CC(=O)C(OC)=CC1=O)c1ccc(OC)cc1 (configuration not stated)
Result: 0.829
